biological target: histamine H4 receptor (Homo sapiens); test: H4 Membrane Binding Assay (3H-Histamine displacement); conditions: membranes of recombinant HEK293SFM cells, 10 nM 3H-Histamine, 1.5 hr at room temperature
Sequence (Q9H3N8 whole entry): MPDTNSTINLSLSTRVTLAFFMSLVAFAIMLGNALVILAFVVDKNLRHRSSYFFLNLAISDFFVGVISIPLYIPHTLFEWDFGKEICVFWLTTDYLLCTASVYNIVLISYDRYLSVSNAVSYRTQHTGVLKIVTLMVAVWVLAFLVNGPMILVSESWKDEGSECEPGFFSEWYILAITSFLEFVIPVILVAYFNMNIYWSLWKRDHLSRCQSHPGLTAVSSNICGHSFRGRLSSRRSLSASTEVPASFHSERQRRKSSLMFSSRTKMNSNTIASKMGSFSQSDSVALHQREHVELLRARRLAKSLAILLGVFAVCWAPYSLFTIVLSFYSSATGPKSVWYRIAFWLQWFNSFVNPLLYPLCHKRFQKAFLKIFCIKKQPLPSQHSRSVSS
Parameter IC50: see the listing below.
property label: IC50 (nM)

{"compound": "CN1CCN(c2cc(-c3ccc4c(c3)CN(C(=O)NC3CCCc5ccccc53)CC4)nc(N)n2)CC1 (stereo not drawn)", "property label": "IC50", "measure unit": "nM", "experimental result": 38}
{"compound": "CO[C@@H]1Cc2ccccc2[C@@H]1NC(=O)N1CCc2ccc(-c3cc(N4CCN(C)CC4)nc(N)n3)cc2C1", "property label": "IC50", "measure unit": "nM", "experimental result": 93}
{"compound": "CN1CCN(c2cc(-c3ccc4c(c3)CN(C(=O)C3CCCCC3)CC4)nc(N)n2)CC1", "property label": "IC50", "measure unit": "nM", "experimental result": 81}
{"compound": "CN1CCN(c2cc(-c3ccc4c(c3)CN(C(=O)CC3(C#N)CCCC3)CC4)nc(N)n2)CC1", "property label": "IC50", "measure unit": "nM", "experimental result": 22}
{"compound": "CN1CCN(c2nc(N)nc3cc(C(=O)NC(Cc4cccc(Oc5ccc(Cl)cc5C#N)c4)C(=O)N(C)C)ccc23)CC1 (stereo not drawn)", "property label": "IC50", "measure unit": "nM", "experimental result": 26}
{"compound": "CC(C)[C@H](C)NC(=O)N1CCc2ccc(-c3cc(N4CCN(C)CC4)nc(N)n3)cc2C1", "property label": "IC50", "measure unit": "nM", "experimental result": 73}
{"compound": "CN1CCN(c2nc(N)nc3cc(C(=O)NC(Cc4ccc(-c5ccccc5)s4)C(=O)N(C)C)ccc23)CC1 (stereo not drawn)", "property label": "IC50", "measure unit": "nM", "experimental result": 71}
{"compound": "CN1CCN(c2nc(N)nc3cc(C(=O)N[C@@H](Cc4ccc(-c5cccc(Cl)c5Cl)cc4)C(=O)N(C)C)ccc23)CC1", "property label": "IC50", "measure unit": "nM", "experimental result": 10}
{"compound": "CN1CCN(c2cc(-c3ccc4c(c3)CN(C(=O)CC3(C#N)CCC3)CC4)nc(N)n2)CC1", "property label": "IC50", "measure unit": "nM", "experimental result": 34}
{"compound": "CN1CCN(c2cc(-c3ccc4c(c3)CN(C(=O)Nc3ccccc3F)CC4)nc(N)n2)CC1", "property label": "IC50", "measure unit": "nM", "experimental result": 31}
{"compound": "CN1CCN(c2cc(-c3ccc4c(c3)CN(C(=O)N[C@H]3C[C@@H]3c3ccccc3)CC4)nc(N)n2)CC1 (relative stereo)", "property label": "IC50", "measure unit": "nM", "experimental result": 47}
{"compound": "Cc1ccc([C@H](C)NC(=O)c2ccc3c(N4CCN(C)CC4)nc(N)nc3c2)cc1", "property label": "IC50", "measure unit": "nM", "experimental result": 334}
{"compound": "CN1CCN(c2cc(-c3ccc4c(c3)CN(C(=O)NCc3ccccc3)CC4)nc(N)n2)CC1", "property label": "IC50", "measure unit": "nM", "experimental result": 232}
{"compound": "COC(=O)[C@H](Cc1ccc(-c2ccccc2)cc1)NC(=O)c1ccc2c(N3CCN(C)CC3)nc(N)nc2c1", "property label": "IC50", "measure unit": "nM", "experimental result": 23}
{"compound": "CN1CCN(c2nc(N)nc3cc(C(=O)NC(Cc4cccc(Oc5ccccc5)c4)C(=O)N(C)C)ccc23)CC1 (stereo not drawn)", "property label": "IC50", "measure unit": "nM", "experimental result": 65}

Taken from patent US8481732B2.
